# Tested on: biotinyl-Met-oxazolone
# RUN DESCRIPTION: self-aminoacylation, catalytic enhancement (BMO) (fold over background); higher = more active; k-Seq, kA / k0A0; sequences stand for … in GGGAAUGGAUCCACAUCUACGAAUUC…UUCACUGCAGACUUGACGAAGCUG
This sample holds only a part of the variants without activity.
Exercise: state measured self-aminoacylation for each of the sequences provided.
Kindly provide the number alone.

Entry CCACACUUCACGCCAUCGGUC [Fam1B.1 aminoacylation ribozyme variant] has what self-aminoacylation?
1.31

I am curious: what self-aminoacylation value has been reported for CCUCACUUCAAGCAAUCGGCC [Fam1B.1 aminoacylation ribozyme variant] ?
1.53

Could you tell me which self-aminoacylation is on file for CUACUUCAAACAAUCGUUGUG [Fam1A.1 aminoacylation ribozyme variant] ?
1.68

Which self-aminoacylation value is on record for AAGUGUGCUAAUAGUCGCAAA [Fam3.1 aminoacylation ribozyme variant] ?
2.07

Requested read-out: self-aminoacylation. Entry: AUUACCCUGGCCAUCGAAUGA [Fam2.1 aminoacylation ribozyme variant]
0.928

Consider the sequence AAGUUUGCUAAUGGUCGCGAG [Fam3.1 aminoacylation ribozyme variant] and give its measured self-aminoacylation.
1.15

Which self-aminoacylation value is on record for AUUCACCCAGGCCAUCGGGUG [Fam2.2 aminoacylation ribozyme variant] ?
3.79

Item AUUCACCUAGGUCAUCGUGUU [Fam2.2 aminoacylation ribozyme variant] has what recorded self-aminoacylation?
0.887

// returns reported self-aminoacylation for input AAUUUUGCUAAUAGUCGCAUG [Fam3.1 aminoacylation ribozyme variant]
2.28

Would you mind telling me what self-aminoacylation value was observed for AUUAACCUGGGCAUCGAGUGA [Fam2.1 aminoacylation ribozyme variant] ?
4.66

Report self-aminoacylation for AUUCACGUAGGUCAUCAGGUG [Fam2.2 aminoacylation ribozyme variant] please.
2.77

For the sequence shown here, AAGUUUGCUAAUAGACGCACG [Fam3.1 aminoacylation ribozyme variant] , give the reported self-aminoacylation.
0.472

State the recorded self-aminoacylation for this entry: CUACUGCAAACAAUGGGUCUG [Fam1A.1 aminoacylation ribozyme variant]
1.2

May I ask what self-aminoacylation has been recorded for AUUCACCUAGGUCAUCGGUUA [Fam2.2 aminoacylation ribozyme variant] ?
1.28

// returns reported self-aminoacylation for input AUUCACCUAGGUAAUCGGAUG [Fam2.2 aminoacylation ribozyme variant]
0.585

What self-aminoacylation value was documented for this sequence, AUUCCCCUAGGUCAUCGGGCG [Fam2.2 aminoacylation ribozyme variant] ?
15.7

# query: self-aminoacylation of entry AAUCACCUAGGUAAUCGGGUG [Fam2.2 aminoacylation ribozyme variant]
2.67

# lookup: self-aminoacylation of AUUCACCUAGGCCAUCGGCUG [Fam2.2 aminoacylation ribozyme variant]
2.27

Any idea what self-aminoacylation was measured for AGCUUUGCUAAUAGUCGCAAG [Fam3.1 aminoacylation ribozyme variant] ?
3.31

// returns reported self-aminoacylation for input ACGUUUGCCAAUAGUCGCAAG [Fam3.1 aminoacylation ribozyme variant]
2.04

Form field: reported self-aminoacylation of AUGUUUGCUAAUUGUCGCAAG [Fam3.1 aminoacylation ribozyme variant]
1.41

Sample AAGUUUGCUAGCAGUCGCAAG [Fam3.1 aminoacylation ribozyme variant] — what was its self-aminoacylation?
1.03

For AAGUUUGCCAGUAGUCGCAAG [Fam3.1 aminoacylation ribozyme variant] , what is its reported self-aminoacylation?
0.793

Looking for the measured self-aminoacylation of UCACACUUCAUGCAAUCGGUC [Fam1B.1 aminoacylation ribozyme variant] , can you help?
0.793

Reported self-aminoacylation, sequence GUUCACCUAGGUCCUCGGGUG [Fam2.2 aminoacylation ribozyme variant] : ____
4.16

Reported self-aminoacylation, sequence CUCCUUCAAACAAUCGGCCUG [Fam1A.1 aminoacylation ribozyme variant] : ____
2.63

Return reported self-aminoacylation; argument: AUUCACCGAGGUCAUCGCGUG [Fam2.2 aminoacylation ribozyme variant]
16

Reported self-aminoacylation, sequence AUUCACCUCGGUCAUCGCGUG [Fam2.2 aminoacylation ribozyme variant] : ____
11.4

# get_value(readout='self-aminoacylation', item= CUACUCUUCAAGCAAUCGGUC [Fam1B.1 aminoacylation ribozyme variant] )
0.904

For CUACUUCAAACAAUCGUUCGG [Fam1A.1 aminoacylation ribozyme variant] , what is its reported self-aminoacylation?
0.641

Give the measured self-aminoacylation of AAUCACCUAGAUCAUCGGGUG [Fam2.2 aminoacylation ribozyme variant] .
2.41

Suppose we examine the sequence AUUCACAUCGGUCAUCGGGUG [Fam2.2 aminoacylation ribozyme variant] ; what self-aminoacylation value has been reported?
8.09

Which self-aminoacylation is listed for UUUACCCUGGUCAUCUAGUGA [Fam2.1 aminoacylation ribozyme variant] ?
8.71

Would you mind telling me what self-aminoacylation value was observed for AUUCAGCUAGGUCAUCGCGUG [Fam2.2 aminoacylation ribozyme variant] ?
6.28

Suppose we examine the sequence CUUCACCGAGGUCAUCGGGUG [Fam2.2 aminoacylation ribozyme variant] ; what self-aminoacylation value has been reported?
6.2

* * *

# System: biotinyl-Met-oxazolone
# RUN DESCRIPTION: self-aminoacylation, catalytic enhancement (BMO) (fold over background); higher = more active; k-Seq, kA / k0A0; sequences stand for … in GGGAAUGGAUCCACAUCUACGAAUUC…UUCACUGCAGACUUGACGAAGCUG
Variants at the floor of the assay were thinned out.
QUANTITY MEASURED: self-aminoacylation
No unit in the answer, please; the number alone is enough.

Look up self-aminoacylation for this sequence: UCACACUUCAAGCCAUCGGUC [Fam1B.1 aminoacylation ribozyme variant]
1.08

Request the reported self-aminoacylation associated with CCACACGUCAAGCAAUCGCUC [Fam1B.1 aminoacylation ribozyme variant]
2.64

What does the record list as self-aminoacylation for AUUCACCUACGUCAUCGGGCG [Fam2.2 aminoacylation ribozyme variant] ?
3.42

Tell me the measured self-aminoacylation of AUUCAUCUAGGUCAUCUGGUG [Fam2.2 aminoacylation ribozyme variant] , please.
3.4

* * *

# Tested on: biotinyl-Ile-oxazolone
# RUN DESCRIPTION: self-aminoacylation, catalytic enhancement (BIO) (fold over background); higher = more active; k-Seq, kA / k0A0; sequences stand for … in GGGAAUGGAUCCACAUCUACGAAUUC…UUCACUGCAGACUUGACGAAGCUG
This sample holds only a part of the variants without activity.
Give self-aminoacylation for every item shown.
API note: the answer field is a bare number with no unit suffix.

So what self-aminoacylation did AAGUUUGCUAAUGGGCGCAAG [Fam3.1 aminoacylation ribozyme variant] get with biotinyl-Ile-oxazolone?
0.937

Query the reported self-aminoacylation for biotinyl-Ile-oxazolone; item: AAGUGUGCCAAUAGUCGCAAG [Fam3.1 aminoacylation ribozyme variant]
2.38

// map CCUCACUUCAGGCAAUCGGUC [Fam1B.1 aminoacylation ribozyme variant] to recorded self-aminoacylation (system: biotinyl-Ile-oxazolone)
0.856

Lab note: need self-aminoacylation with biotinyl-Ile-oxazolone for entry AGUCACCUAGGUCAUGGGGUG [Fam2.2 aminoacylation ribozyme variant] , please look it up.
3.57

Missing value: self-aminoacylation, biotinyl-Ile-oxazolone, entry CCACACUUCAAGCAAUCUGCC [Fam1B.1 aminoacylation ribozyme variant] . Fill in?
0.806

Value wanted: self-aminoacylation (biotinyl-Ile-oxazolone) of entry AUACUUCAAACAGUCGGUCUG [Fam1A.1 aminoacylation ribozyme variant]
0.876

Recorded self-aminoacylation for AUACUUCAAACAAUCCGUCUG [Fam1A.1 aminoacylation ribozyme variant] with biotinyl-Ile-oxazolone, please?
1.04

Short answer please: self-aminoacylation, biotinyl-Ile-oxazolone, entry AUUACUCUGGUCAUCGAAUGA [Fam2.1 aminoacylation ribozyme variant]
1.19

Query for biotinyl-Ile-oxazolone: what self-aminoacylation does the record show for CUACAUCAAAUAAUCGGUCUG [Fam1A.1 aminoacylation ribozyme variant] ?
0.801

Return self-aminoacylation measured with biotinyl-Ile-oxazolone given this sequence: AUUACCCUGGUCAUCGAGUAU [Fam2.1 aminoacylation ribozyme variant]
8

Value wanted: self-aminoacylation (biotinyl-Ile-oxazolone) of entry AUACUCCUAGGUCAUCGGGUG [Fam2.2 aminoacylation ribozyme variant]
2.97

Quick check: self-aminoacylation on biotinyl-Ile-oxazolone, item CCACACAUCAAGCAAUCGGUG [Fam1B.1 aminoacylation ribozyme variant] ?
3.27

Could you share what self-aminoacylation was measured for GUACUUCAAACACUCGGUCUG [Fam1A.1 aminoacylation ribozyme variant] , tested on biotinyl-Ile-oxazolone?
1.5

Give self-aminoacylation (biotinyl-Ile-oxazolone) of the following sequence: UAGUAUGCUAAUAGUCGCAAG [Fam3.1 aminoacylation ribozyme variant]
1.62

State its self-aminoacylation on biotinyl-Ile-oxazolone: AUUACCCUCGUCCUCGAGUGA [Fam2.1 aminoacylation ribozyme variant]
2.48

Look up self-aminoacylation with biotinyl-Ile-oxazolone for this sequence: AUUCUGCUAGGUCAUCGGGUG [Fam2.2 aminoacylation ribozyme variant]
5.96

Which measured self-aminoacylation belongs to CCACACUUCACGGAAUCGGUC [Fam1B.1 aminoacylation ribozyme variant] , tested on biotinyl-Ile-oxazolone?
1.16

Query self-aminoacylation on biotinyl-Ile-oxazolone for AGUCACCUAGUUCAUCGGGUG [Fam2.2 aminoacylation ribozyme variant]
3.71
